B1: PhoQ; a variant is named by its letters at X, in order, P23837 (parent)
chain: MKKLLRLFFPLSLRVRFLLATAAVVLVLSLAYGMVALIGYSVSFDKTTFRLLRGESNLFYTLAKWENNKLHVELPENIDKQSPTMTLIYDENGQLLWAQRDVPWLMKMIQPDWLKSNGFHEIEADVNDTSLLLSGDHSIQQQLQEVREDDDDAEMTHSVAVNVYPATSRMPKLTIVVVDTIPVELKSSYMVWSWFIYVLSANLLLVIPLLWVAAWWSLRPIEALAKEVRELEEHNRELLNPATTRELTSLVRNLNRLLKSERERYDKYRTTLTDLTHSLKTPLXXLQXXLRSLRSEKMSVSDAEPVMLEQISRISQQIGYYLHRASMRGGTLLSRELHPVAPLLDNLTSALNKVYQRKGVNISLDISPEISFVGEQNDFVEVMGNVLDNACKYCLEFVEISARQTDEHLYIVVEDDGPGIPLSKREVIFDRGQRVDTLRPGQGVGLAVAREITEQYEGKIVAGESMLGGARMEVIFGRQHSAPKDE

- Variants of: B1
- assay.info: enrichment ratio after two sorts for PhoP signalling (ratio (wild type AVST 3.29)); higher = more functional
- study.conditions: with PhoP (E. coli)
In all, about 140,000 sequences were measured (“enrichment ratio after two sorts for PhoP signalling”: median about 0, highest 2% from about 11 on). The entries come from a sample that favours the highest values as a whole.
Task for the reader: assign each of the following variants its reported enrichment ratio.

Please give the measured enrichment ratio for this variant: "GQWY"
≤ 0.25

Please give the measured enrichment ratio for this variant: "VMIQ"
≤ 0.25

Please give the measured enrichment ratio for this variant: "WNTL"
≤ 0.25

Please give the measured enrichment ratio for this variant: "WLGW"
≤ 0.25

Please give the measured enrichment ratio for this variant: "IEKG"
≤ 0.25

Please give the measured enrichment ratio for this variant: "YSAH"
≤ 0.25

Please give the measured enrichment ratio for this variant: "NLYI"
≤ 0.25

Please give the measured enrichment ratio for this variant: "SPAC"
≤ 0.25

Please give the measured enrichment ratio for this variant: "ANGQ"
≤ 0.25

Please give the measured enrichment ratio for this variant: "PGNR"
≤ 0.25

Please give the measured enrichment ratio for this variant: "GGAC"
≤ 0.25

Please give the measured enrichment ratio for this variant: "VHAC"
≤ 0.25
